- assayed_system: human 5-HT1A receptor (Homo sapiens (Human), UniProt P08908)
- Sequence (P08908 whole entry): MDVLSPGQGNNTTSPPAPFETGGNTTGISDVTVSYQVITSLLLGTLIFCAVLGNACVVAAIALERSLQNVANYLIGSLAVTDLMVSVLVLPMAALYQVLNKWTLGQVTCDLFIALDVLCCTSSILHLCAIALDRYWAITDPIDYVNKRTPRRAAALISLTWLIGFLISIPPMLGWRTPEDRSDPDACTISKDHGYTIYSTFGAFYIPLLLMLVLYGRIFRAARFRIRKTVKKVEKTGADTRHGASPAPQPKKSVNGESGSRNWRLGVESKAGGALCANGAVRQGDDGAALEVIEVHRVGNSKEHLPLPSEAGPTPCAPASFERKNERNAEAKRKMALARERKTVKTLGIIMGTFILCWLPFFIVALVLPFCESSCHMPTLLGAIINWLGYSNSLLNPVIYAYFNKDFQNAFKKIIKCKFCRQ
pKi: −log10 of the molar value.
measured_quantity: pKi

structure_string=O=C1COCCN1c1ccc(N2CCN(CCCCc3c[nH]c4ccc(F)cc34)CC2)cc1 measured_quantity=pKi recorded_measurement=8.51
structure_string=COc1ccn(-c2ccc(N3CCN(CCCCc4c[nH]c5ccc(C#N)cc45)CC3)cc2)c(=O)c1 measured_quantity=pKi recorded_measurement=8.92

1: N#Cc1ccc2[nH]cc(CCCN3CCN(c4ccc(-n5ccc6occc6c5=O)cc4)CC3)c2c1
2: N#Cc1ccc2[nH]cc(CCCCN3CCN(c4ccc(-n5cc(F)cc(F)c5=O)cc4)CC3)c2c1
Query: When their pKi values are compared, which is larger, 1 or 2 ? Return value: the label identifying the chosen record.
Result: 1
(1: 10.00, 2: 9.74)

* * *

- assayed_system: serotonin transporter in rat synaptosome (Rattus norvegicus (Rat))
- assay_protocol: Inhibitory effect on [3H]5-HT uptake in rat synaptosome
- experimental_conditions: rat brain synaptosomes, 0.1 μCi [3H]5-HT, 37° C., 15 minutes
measured_quantity: IC50 (nM)

Known IC50 results, listed for orientation:
molecule="N#Cc1ccc2[nH]cc(CCCCN3CCN(c4ccc(N5CCCNC5=O)cc4)CC3)c2c1 [Example 37]" measured_quantity=IC50 recorded_measurement=1.3
molecule="N#Cc1ccc2[nH]cc(CCCCN3CCN(c4ccc(-n5ccc6ccccc6c5=O)cc4)CC3)c2c1 [Example 29]" measured_quantity=IC50 recorded_measurement=10
molecule="N#Cc1ccc2[nH]cc(C(O)CCCN3CCN(c4ccc(-n5ccccc5=O)cc4)CC3)c2c1 (centres unmarked) [Example 15]" measured_quantity=IC50 recorded_measurement=330
molecule="N#Cc1ccc2[nH]cc(CCCN3CCN(c4ccc(N5CCOCC5=O)cc4)CC3)c2c1 [Example 8]" measured_quantity=IC50 recorded_measurement=10

a: N#Cc1ccc2[nH]cc(CCCCCN3CCN(c4ccc(-n5ccccc5=O)cc4)CC3)c2c1 [Example 14]
b: N#Cc1ccc2[nH]cc(CCCN3CCN(c4ccc(N5CCCCC5=O)cc4)CC3)c2c1 [Example 4]
c: Cc1ccn(-c2ccc(N3CCN(CCCCCc4c[nH]c5ccc(C#N)cc45)CC3)cc2)c(=O)c1 [Example 20]
d: N#Cc1ccc2[nH]cc(C(O)CCN3CCN(c4ccc(-n5ccccc5=O)cc4)CC3)c2c1 (centres unmarked) [Example 16]
Query: Ascending by IC50, please: list the molecules accordingly. Respond with the label ranking, as requested.
Result: a, c, b, d
(a: 1.4 nM, c: 3.6 nM, b: 8.5 nM, d: 170 nM)

a: O=c1ccccn1-c1ccc(N2CCN(CCCCc3c[nH]c4ccc(F)cc34)CC2)cc1 [Example 10]
b: N#Cc1ccc2[nH]cc(CCCN3CCN(c4ccc(-n5ccc6ccccc6c5=O)cc4)CC3)c2c1 [Example 30]
c: N#Cc1ccc2[nH]cc(CCCCN3CCN(c4ccc(-n5ccccc5=O)cc4)CC3)c2c1 [Example 9]
Query: List these items ordered by IC50, big to small. Please list the labels in the order you were asked to rank them.
Result: c, b, a
(c: 8 nM, b: 4.3 nM, a: 1.6 nM)

P: N#Cc1ccc2[nH]cc(CCCCN3CCN(c4ccc(-n5cc(F)cc(F)c5=O)cc4)CC3)c2c1 [Example 25]
Q: COc1ccn(-c2ccc(N3CCN(CCc4c[nH]c5ccc(C#N)cc45)CC3)cc2)c(=O)c1 [Example 23]
Query: Which numeric IC50 is bigger, that of P or that of Q ? Your answer should be the label of the entry you select.
Result: Q

A: COc1ccn(-c2ccc(N3CCN(CCCc4c[nH]c5ccc(C#N)cc45)CC3)cc2)c(=O)c1 [Example 22]
B: Cc1ccn(-c2ccc(N3CCN(CCCc4c[nH]c5ccc(C#N)cc45)CC3)cc2)c(=O)c1 [Example 18]
C: N#Cc1ccc2[nH]cc(CCCN3CCN(c4ccc(-n5ccc6occc6c5=O)cc4)CC3)c2c1 [Example 34]
D: N#Cc1ccc2[nH]cc(CCCCN3CCN(c4ccc(-n5ccncc5=O)cc4)CC3)c2c1 [Example 35]
Query: Reorder the items by IC50, least to greatest. Form entry: ranked labels (order as requested).
Result: D, A, C, B
(D: 0.8 nM, A: 1.8 nM, C: 4.2 nM, B: 7.5 nM)

* * *

For human 5-HT1A receptor (Homo sapiens (Human)), measured Ki is reported for the entries below.
measured_quantity: Ki (nM)

Answered cases to consult:
structure_string=N#Cc1ccc2[nH]cc(CCCN3CCN(c4ccc(-n5ccncc5=O)cc4)CC3)c2c1 measured_quantity=Ki recorded_measurement=3
structure_string=N#Cc1ccc2[nH]cc(CCCCCN3CCN(c4ccc(-n5ccccc5=O)cc4)CC3)c2c1 measured_quantity=Ki recorded_measurement=4.1
structure_string=N#Cc1ccc2[nH]cc(CCCN3CCN(c4ccc(-n5ccc6ncccc6c5=O)cc4)CC3)c2c1 measured_quantity=Ki recorded_measurement=1.7
structure_string=N#Cc1ccc2[nH]cc(CCCCCN3CCN(c4ccc(-n5cc(F)cc(F)c5=O)cc4)CC3)c2c1 measured_quantity=Ki recorded_measurement=1.5

A: N#Cc1ccc2[nH]cc(CCCN3CCN(c4ccc(-n5ccccc5=O)cc4)CC3)c2c1
B: O=C1CCCCN1c1ccc(N2CCN(CCCc3c[nH]c4ccc(F)cc34)CC2)cc1
C: O=C1COCCN1c1ccc(N2CCN(CCCc3c[nH]c4ccc(F)cc34)CC2)cc1
D: N#Cc1ccc2[nH]cc(CCCCN3CCN(c4ccc(-n5ccccc5=O)cc4)CC3)c2c1
Query: Reorder the items by Ki, least to greatest. Reply with the item labels sorted in the order that was asked for.
Result: D, A, B, C

* * *

- assayed_system: human 5-HT1A receptor (Homo sapiens (Human), UniProt P08908)
pKi: −log10 of the molar value.
measured_quantity: pKi

Guide cases for pKi, answers given:
structure_string=N#Cc1ccc2[nH]cc(CCCN3CCN(c4ccc(N5CCCNC5=O)cc4)CC3)c2c1 assayed_system="human 5-HT1A receptor (Homo sapiens (Human), UniProt P08908)" measured_quantity=pKi recorded_measurement=8.72
structure_string=N#Cc1ccc2[nH]cc(CCCCN3CCN(c4ccc(-n5ccc6ncccc6c5=O)cc4)CC3)c2c1 assayed_system="human 5-HT1A receptor (Homo sapiens (Human), UniProt P08908)" measured_quantity=pKi recorded_measurement=9.30
structure_string=N#Cc1ccc2[nH]cc(CCCCN3CCN(c4ccc(-n5ccc6occc6c5=O)cc4)CC3)c2c1 assayed_system="human 5-HT1A receptor (Homo sapiens (Human), UniProt P08908)" measured_quantity=pKi recorded_measurement=9.85
structure_string=N#Cc1ccc2[nH]cc(CCN3CCN(c4ccc(-n5ccccc5=O)cc4)CC3)c2c1 assayed_system="human 5-HT1A receptor (Homo sapiens (Human), UniProt P08908)" measured_quantity=pKi recorded_measurement=7.27

1: O=c1ccccn1-c1ccc(N2CCN(CCCc3c[nH]c4ccc(F)cc34)CC2)cc1
2: N#Cc1ccc2[nH]cc(CCCCN3CCN(c4ccc(N5CCCCC5=O)cc4)CC3)c2c1
3: O=c1ccccn1-c1ccc(N2CCN(CCCCc3c[nH]c4ccc(F)cc34)CC2)cc1
Query: Provide the items ranked by increasing pKi. I'd appreciate it if you listed the labels in the requested order.
Result: 2, 1, 3
(2: 8.72, 1: 9.06, 3: 9.72)

* * *

- assayed_system: serotonin transporter in rat synaptosome (Rattus norvegicus (Rat), UniProt P31652)
- Sequence (P31652 whole entry): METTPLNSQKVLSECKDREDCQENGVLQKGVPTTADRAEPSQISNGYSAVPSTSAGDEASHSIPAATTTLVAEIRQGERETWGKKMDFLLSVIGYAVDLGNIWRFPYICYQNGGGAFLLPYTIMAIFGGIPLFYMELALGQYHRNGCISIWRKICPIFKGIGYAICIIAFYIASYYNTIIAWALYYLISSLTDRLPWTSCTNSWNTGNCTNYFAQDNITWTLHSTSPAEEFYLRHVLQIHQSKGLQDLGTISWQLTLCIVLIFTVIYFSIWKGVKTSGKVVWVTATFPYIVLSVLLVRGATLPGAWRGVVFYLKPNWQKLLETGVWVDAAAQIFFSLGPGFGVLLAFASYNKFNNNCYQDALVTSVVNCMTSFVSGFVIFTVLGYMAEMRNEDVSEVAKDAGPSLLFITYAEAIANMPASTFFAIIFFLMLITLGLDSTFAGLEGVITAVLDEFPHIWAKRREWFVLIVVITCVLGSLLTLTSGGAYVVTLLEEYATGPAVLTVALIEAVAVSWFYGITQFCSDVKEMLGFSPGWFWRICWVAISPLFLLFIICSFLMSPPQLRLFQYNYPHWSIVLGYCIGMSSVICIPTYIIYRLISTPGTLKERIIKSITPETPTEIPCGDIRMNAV
- assay_protocol: Inhibitory effect on [3H]5-HT uptake in rat synaptosome
- experimental_conditions: rat brain synaptosomes, 0.1 μCi [3H]5-HT, 37° C., 15 minutes
- Procedure: The synaptosomes (150 μg) prepared from a rat brain were incubated at 37° C. for 15 minutes with 0.1 μCi [^3H]5-HT in the absence or presence of the test compound or the reference compound in a buffer solution containing 106.2 mM NaCl, 4.5 mM KCl, 2.25 mM MgSO4, 1.08 mM NaH2PO4, 22.5 mM NaHCO3, 9.9 mM glucose, 9 μM EGTA and 45 μM ascorbic acid (pH 7.4). […] Inhibition of serotonin transporter in rat synaptosome was measured by the concentrations of [^3H]5-HT.
pIC50: −log10 of the molar value.
measured_quantity: pIC50

The cases that follow already have their pIC50 on record.
compound="N#Cc1ccc2[nH]cc(CCCCCN3CCN(c4ccc(-n5cc(F)cc(F)c5=O)cc4)CC3)c2c1 [Example 28]" assayed_system="serotonin transporter in rat synaptosome (Rattus norvegicus (Rat), UniProt P31652)" recorded_measurement=8.66
compound="Cc1ccn(-c2ccc(N3CCN(CCc4c[nH]c5ccc(C#N)cc45)CC3)cc2)c(=O)c1 [Example 19]" assayed_system="serotonin transporter in rat synaptosome (Rattus norvegicus (Rat), UniProt P31652)" recorded_measurement=8.70
compound="O=C1CCCCN1c1ccc(N2CCN(CCCc3c[nH]c4ccc(F)cc34)CC2)cc1 [Example 3]" assayed_system="serotonin transporter in rat synaptosome (Rattus norvegicus (Rat), UniProt P31652)" recorded_measurement=8.38
compound="N#Cc1ccc2[nH]cc(CCCCN3CCN(c4ccc(N5CCCCC5=O)cc4)CC3)c2c1 [Example 2]" assayed_system="serotonin transporter in rat synaptosome (Rattus norvegicus (Rat), UniProt P31652)" recorded_measurement=8.74
compound="N#Cc1ccc2[nH]cc(CCCN3CCN(c4ccc(N5CCCNC5=O)cc4)CC3)c2c1 [Example 38]" assayed_system="serotonin transporter in rat synaptosome (Rattus norvegicus (Rat), UniProt P31652)" recorded_measurement=8.85
compound="O=C1COCCN1c1ccc(N2CCN(CCCCc3c[nH]c4ccc(F)cc34)CC2)cc1 [Example 5]" assayed_system="serotonin transporter in rat synaptosome (Rattus norvegicus (Rat), UniProt P31652)" recorded_measurement=8.20

A: N#Cc1ccc2[nH]cc(CCCN3CCN(c4ccc(-n5ccncc5=O)cc4)CC3)c2c1 [Example 36]
B: N#Cc1ccc2[nH]cc(CCN3CCN(c4ccc(-n5cc(F)cc(F)c5=O)cc4)CC3)c2c1 [Example 27]
C: N#Cc1ccc2[nH]cc(CCCN3CCN(c4ccc(-n5ccccc5=O)cc4)CC3)c2c1 [Example 11]
Query: Falling order of pIC50, please. Response format: the labels, sorted as the prompt asks.
Result: C, A, B
(C: 9.01, A: 8.74, B: 8.26)
